- study_system: full-length human aurora-A (Homo sapiens, UniProt O14965)
- Construct: Full-length human aurora-A was assayed; purchased EMD Millipore KinaseProfiler service
- Sequence (O14965 whole entry): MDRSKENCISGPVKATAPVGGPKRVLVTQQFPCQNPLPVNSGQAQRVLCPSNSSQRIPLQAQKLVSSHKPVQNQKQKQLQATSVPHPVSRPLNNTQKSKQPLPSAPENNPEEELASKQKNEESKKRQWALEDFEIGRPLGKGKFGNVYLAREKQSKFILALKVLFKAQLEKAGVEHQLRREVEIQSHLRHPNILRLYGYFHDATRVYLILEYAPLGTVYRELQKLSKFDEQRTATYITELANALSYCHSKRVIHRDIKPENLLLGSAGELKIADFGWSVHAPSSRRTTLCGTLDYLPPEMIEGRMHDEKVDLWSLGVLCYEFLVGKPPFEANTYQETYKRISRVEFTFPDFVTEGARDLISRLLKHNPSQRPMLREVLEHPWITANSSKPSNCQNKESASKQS
- assay_details: In vitro kinase assay (EMD Millipore KinaseProfiler)
- Type: biochemical
- condition_info: 10 μM γ-33P-ATP, 200 μM Kemptide, 8 doses in duplicate
readout_label: IC50 (µM)
Numbers only, in µM.

Input line: Identify the measured IC50 of COc1ccc(NC(=O)Nc2ccc3c(c2)C(=O)N([C@@H](C)CO)C[C@H](C)[C@H](CN(C)Cc2ccc4c(c2)OCO4)O3)cc1 [BRD-7880] for full-length human aurora-A (Homo sapiens, UniProt O14965).
Output line: 2.15
